Molecular target: T1, Recombinant human OX40-His protein (human, UniProt P43489 29-214, limits assumed)
T1 construct: Recombinant antigen protein; also called recombinant human OX-40 protein; human OX-40 protein; not shown: His tag
T1 sequence (looked up): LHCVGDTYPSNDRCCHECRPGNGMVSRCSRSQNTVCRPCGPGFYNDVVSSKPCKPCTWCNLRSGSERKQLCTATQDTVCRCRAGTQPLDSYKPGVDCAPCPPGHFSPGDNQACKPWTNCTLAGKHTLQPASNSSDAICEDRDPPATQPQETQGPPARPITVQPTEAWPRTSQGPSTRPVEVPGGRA
Experiment: SPR (Biacore 8K), OX40-HIS coupled to chip, antibody as analyte, 1:1 binding model
Reported metric: Kd (nM)
Report the value in nM with no unit label.

Form: binder = AH02916 humanized anti-human OX40 monoclonal antibody (recombinant human IgG1/kappa) (antibody, V domains shown) VH: QVQLVQSGAEVKKPGASVKVSCKASGYTFTDYSMHWVKQAPGQGLEWMGWISTETGEPTYADDFKGRVTITLDTSASTAYMELSSLRSEDTAVYYCARVRPWYLAVWGQGTLVTVSS VL: DIQMTQSPSSLSASVGDRVTITCRASQDISNYLNWYQQKPGKAVKLLIYYTSRLYSGVPSRFSGSGSGTDYTFTISSLQPEDIATYFCQQANTLPLTFGGGTKLEIK ; Kd = 2.46

Form: binder = AH02919 humanized anti-human OX40 monoclonal antibody (recombinant human IgG1/kappa) (antibody, V domains shown) VH: QVQLVQSGAEVKKPGASVKVSCKASGYTFTDYSMHWVKQAPGQGLEWMGWISTETGEPTYADDFKGRVTITRDTSASTAYLEISSLRSEDTAVYFCARVRPWYLAVWGQGTLVTVSS VL: DIQMTQSPSSLSASVGDRVTITCRASQDISNYLNWYQQKPGKAVKLLIYYTSRLYSGVPSRFSGSGSGTDYTLTISSLQPEDIATYYCQQANTLPLTFGGGTKLEIK ; Kd = 2.09

Form: binder = AH02921 humanized anti-human OX40 monoclonal antibody (recombinant human IgG1/kappa) (antibody, V domains shown) VH: QVQLVQSGPEVKKPGASVKVSCKASGYTFTDYSMHWVRQAPGQGLEWMGWISTETGEPTYADDFKGRFTITLDTSASTAYLEISSLRSEDTAVYFCARVRPWYLTVWGQGTLVTVSS VL: DIQMTQSPSSLSASVGDRVTITCRASQDISNYLNWYQQKPGKAPKLLIYYTSRLYSGVPSRFSGSGSGTDYTLTISSLQPEDIATYFCQQANTLPLTFGGGTKLEIK ; Kd = 1.34

Form: binder = AH02913 humanized anti-human OX40 monoclonal antibody (recombinant human IgG1/kappa) (antibody, V domains shown) VH: QVQLVQSGPEVKKPGASVKVSCKASGYTFTDYSMHWVKQAPGQGLEWMGWISTETGEPTYADDFKGRVTITLDTSASTAYMELSSLRSEDTAVYFCARVRPWYLAVWGQGTLVTVSS VL: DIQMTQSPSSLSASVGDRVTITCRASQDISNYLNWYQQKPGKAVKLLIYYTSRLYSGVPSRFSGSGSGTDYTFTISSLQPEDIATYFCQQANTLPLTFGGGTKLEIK ; Kd = 1.76

Form: binder = Chimeric antibody (anti-human OX40, recombinant, human IgG1/kappa constant regions) (antibody, V domains shown) VH: QIQLVQSGPELKKPGETVKISCKASGYTFTDYSMHWVKQAPGKGLKWMGWISTETGEPTYADDFKGRFAFSLETSASTAYLQIKNLKNEDTASYFCARVRPWYLAVWGAGTTVTVSS VL: DIQMTQTTSSLSASLGDRVTISCRASQDISNYLNWYQQKPDGTVKLLIYYTSRLYSGVPSRFSGSGSGADYSLTVSNLEQEDIATYFCQQANTLPLTFGAGTKLELK ; Kd = 2.4

Form: binder = AH02917 humanized anti-human OX40 monoclonal antibody (recombinant human IgG1/kappa) (antibody, V domains shown) VH: QVQLVQSGAEVKKPGASVKVSCKASGYTFTDYSMHWVKQAPGQGLEWMGWISTETGEPTYADDFKGRFTITLDTSASTAYMELSSLRSEDTAVYFCARVRPWYLAVWGQGTLVTVSS VL: DIQMTQSPSSLSASVGDRVTITCRASQDISNYLNWYQQKPGKAVKLLIYYTSRLYSGVPSRFSGSGSGTDFTLTISSLQPEDIATYYCQQANTLPLTFGGGTKLEIK ; Kd = 2.6
